# Cond: in ethanol, 298.15 K
Measured parameter: solubility (mole fraction)
Reply with just the number.

Item: "COc1cc2c(cc1OC)-c1cc3ccc(OC)c(OC)c3c[n+]1CC2.[Cl-]" | solubility (mole fraction): 0.0045

====

# Cond: in ethanol, 313.15 K
Measured parameter: solubility (mole fraction)
Reply with just the number.

Item: "COc1cc2c(cc1OC)-c1cc3ccc(OC)c(OC)c3c[n+]1CC2.[Cl-]" | solubility (mole fraction): 0.00779

====

# Cond: in ethanol, 288.15 K
Measured parameter: solubility (mole fraction)
Reply with just the number.

Item: "COc1cc2c(cc1OC)-c1cc3ccc(OC)c(OC)c3c[n+]1CC2.[Cl-]" | solubility (mole fraction): 0.00299

====

# Cond: in ethylene glycol, 303.15 K
Measured parameter: solubility (mole fraction)
Reply with just the number.

Item: "COc1cc2c(cc1OC)-c1cc3ccc(OC)c(OC)c3c[n+]1CC2.[Cl-]" | solubility (mole fraction): 0.00362

====

# Cond: in ethanol, 303.15 K
Measured parameter: solubility (mole fraction)
Reply with just the number.

Item: "COc1cc2c(cc1OC)-c1cc3ccc(OC)c(OC)c3c[n+]1CC2.[Cl-]" | solubility (mole fraction): 0.00543

====

# Cond: in water, 288.15 K
Measured parameter: solubility (mole fraction)
Reply with just the number.

Item: "COc1cc2c(cc1OC)-c1cc3ccc(OC)c(OC)c3c[n+]1CC2.[Cl-]" | solubility (mole fraction): 0.000693

====

# Cond: in isopropanol, 283.15 K
Measured parameter: solubility (mole fraction)
Reply with just the number.

Item: "COc1cc2c(cc1OC)-c1cc3ccc(OC)c(OC)c3c[n+]1CC2.[Cl-]" | solubility (mole fraction): 0.000177

====

# Cond: in ethanol, 308.15 K
Measured parameter: solubility (mole fraction)
Reply with just the number.

Item: "COc1cc2c(cc1OC)-c1cc3ccc(OC)c(OC)c3c[n+]1CC2.[Cl-]" | solubility (mole fraction): 0.00651

====

# Cond: in isopropanol, 298.15 K
Measured parameter: solubility (mole fraction)
Reply with just the number.

Item: "COc1cc2c(cc1OC)-c1cc3ccc(OC)c(OC)c3c[n+]1CC2.[Cl-]" | solubility (mole fraction): 0.000374

====

# Cond: in water, 313.15 K
Measured parameter: solubility (mole fraction)
Reply with just the number.

Item: "COc1cc2c(cc1OC)-c1cc3ccc(OC)c(OC)c3c[n+]1CC2.[Cl-]" | solubility (mole fraction): 0.002

====

# Cond: in water, 283.15 K
Measured parameter: solubility (mole fraction)
Reply with just the number.

Item: "COc1cc2c(cc1OC)-c1cc3ccc(OC)c(OC)c3c[n+]1CC2.[Cl-]" | solubility (mole fraction): 0.000565

====

# Cond: in ethanol, 323.15 K
Measured parameter: solubility (mole fraction)
Reply with just the number.

Item: "COc1cc2c(cc1OC)-c1cc3ccc(OC)c(OC)c3c[n+]1CC2.[Cl-]" | solubility (mole fraction): 0.0108

====

# Cond: in propylene glycol, 313.15 K
Measured parameter: solubility (mole fraction)

Item: "COc1cc2c(cc1OC)-c1cc3ccc(OC)c(OC)c3c[n+]1CC2.[Cl-]" | solubility (mole fraction): 6.48e-05

====

# Cond: in propylene glycol, 293.15 K
Measured parameter: solubility (mole fraction)
Reply with just the number.

Item: "COc1cc2c(cc1OC)-c1cc3ccc(OC)c(OC)c3c[n+]1CC2.[Cl-]" | solubility (mole fraction): 1.36e-05
